Target: furin, P09958;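 note: purified furin at 1:10 enzyme:substrate in 50 mM HEPES pH 7.5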
Sequence (P09958 whole entry): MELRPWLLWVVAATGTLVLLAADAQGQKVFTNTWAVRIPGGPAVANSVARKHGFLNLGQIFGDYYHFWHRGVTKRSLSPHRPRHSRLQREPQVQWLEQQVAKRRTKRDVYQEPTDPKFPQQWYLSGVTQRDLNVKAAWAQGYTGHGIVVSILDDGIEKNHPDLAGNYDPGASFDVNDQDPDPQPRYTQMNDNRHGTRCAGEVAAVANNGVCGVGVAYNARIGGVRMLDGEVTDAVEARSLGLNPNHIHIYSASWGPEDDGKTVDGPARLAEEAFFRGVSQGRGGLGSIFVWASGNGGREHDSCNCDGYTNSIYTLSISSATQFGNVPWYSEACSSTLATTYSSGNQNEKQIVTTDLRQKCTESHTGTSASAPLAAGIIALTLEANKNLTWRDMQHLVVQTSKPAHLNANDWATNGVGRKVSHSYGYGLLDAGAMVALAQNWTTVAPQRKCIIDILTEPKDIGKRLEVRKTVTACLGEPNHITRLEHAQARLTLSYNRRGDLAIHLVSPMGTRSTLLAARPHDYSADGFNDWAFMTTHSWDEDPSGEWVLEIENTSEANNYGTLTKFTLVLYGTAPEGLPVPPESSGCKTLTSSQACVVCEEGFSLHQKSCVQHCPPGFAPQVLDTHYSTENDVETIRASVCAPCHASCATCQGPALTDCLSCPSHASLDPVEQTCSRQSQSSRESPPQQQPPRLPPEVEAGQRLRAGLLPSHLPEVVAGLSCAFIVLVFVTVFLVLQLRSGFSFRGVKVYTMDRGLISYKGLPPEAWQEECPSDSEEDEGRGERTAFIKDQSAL
Assay: furin cleavage Z-score vs untreated control; higher = more cleavage, active = 3.5 or more, inactive = 1 or less, 8 variable residues between constant flanks
Details: 15 min
The list shows a part of the results. How many sequences the whole screen found active is unknown.
Entry note: the call must match one of active, inactive

CAHSSRPVRDAGNASASA [FS-1594] :: active
CAAKSRPVRGAGNASASA [FS-523] :: active
CASWPCSAHLAGNASASA [HC2488] :: inactive
CAMSKRDVLDAGNASASA [FS-2873] :: inactive
CAAKSRPKRRAGNASASA [FS-641] :: active
CAQALDCEIYAGNASASA [HC1591] :: inactive

Now turn to the next sequence.
## Task Answer briefly: the call reported for CARKRRVLTPAGNASASA [FS-2979] in this assay.
## Result inactive
